Target: T1, HLA-A*02:01 (human)
T1 construct: MHC class I monomer made peptide-receptive by UV cleavage of a UV-sensitive ligand; also called peptide-receptive MHC molecules
Experiment: UV-ligand exchange ELISA (anti-β2m), peptide exchange yield grade
From the text: Candidate peptides for T cell based therapies according to the present invention were further tested for their MHC binding capacity (affinity). The individual peptide-MHC complexes were produced by UV-ligand exchange, where a UV-sensitive peptide is cleaved upon UV-irradiation, and exchanged with the peptide of interest as analyzed. Only peptide candidates that can effectively bind and stabilize the peptide-receptive MHC molecules prevent dissociation of the MHC complexes. […]
Reported peptide exchange yield values follow for various binders

>  <BINDER>
SLAPNIISQL [peptide SLAPNIISQL (SEQ ID NO: 121)]

>  <peptide exchange yield>
50 to 75%

$$$$
>  <BINDER>
AMAEMVLQV [peptide AMAEMVLQV (SEQ ID NO: 190)]

>  <peptide exchange yield>
50 to 75%

$$$$
>  <BINDER>
TLQEVVTGV (also called TLQEWTGV) [peptide TLQEVVTGV (SEQ ID NO: 183)]

>  <peptide exchange yield>
50 to 75%

$$$$

What value of peptide exchange yield has been recorded for this entry: KLGDLMVLL [peptide KLGDLMVLL (SEQ ID NO: 173)] 50 to 75%

How about this binder: SLLKRDFGA [peptide SLLKRDFGA (SEQ ID NO: 77)] 20 to 50%

How about this binder: TLDAAQPRV [peptide TLDAAQPRV (SEQ ID NO: 43)] 20 to 50%

How about this binder: VLIDVLKEL [peptide VLIDVLKEL (SEQ ID NO: 129)] 50 to 75%

How about this binder: SLLDENNVSSYL [peptide SLLDENNVSSYL (SEQ ID NO: 184)] 50 to 75%
